Provide the reported pIC50 of each item.
Target: Sarcoplasmic/endoplasmic reticulum calcium ATPase 1 (Oryctolagus cuniculus, UniProt P04191)
Sequence (P04191 whole entry): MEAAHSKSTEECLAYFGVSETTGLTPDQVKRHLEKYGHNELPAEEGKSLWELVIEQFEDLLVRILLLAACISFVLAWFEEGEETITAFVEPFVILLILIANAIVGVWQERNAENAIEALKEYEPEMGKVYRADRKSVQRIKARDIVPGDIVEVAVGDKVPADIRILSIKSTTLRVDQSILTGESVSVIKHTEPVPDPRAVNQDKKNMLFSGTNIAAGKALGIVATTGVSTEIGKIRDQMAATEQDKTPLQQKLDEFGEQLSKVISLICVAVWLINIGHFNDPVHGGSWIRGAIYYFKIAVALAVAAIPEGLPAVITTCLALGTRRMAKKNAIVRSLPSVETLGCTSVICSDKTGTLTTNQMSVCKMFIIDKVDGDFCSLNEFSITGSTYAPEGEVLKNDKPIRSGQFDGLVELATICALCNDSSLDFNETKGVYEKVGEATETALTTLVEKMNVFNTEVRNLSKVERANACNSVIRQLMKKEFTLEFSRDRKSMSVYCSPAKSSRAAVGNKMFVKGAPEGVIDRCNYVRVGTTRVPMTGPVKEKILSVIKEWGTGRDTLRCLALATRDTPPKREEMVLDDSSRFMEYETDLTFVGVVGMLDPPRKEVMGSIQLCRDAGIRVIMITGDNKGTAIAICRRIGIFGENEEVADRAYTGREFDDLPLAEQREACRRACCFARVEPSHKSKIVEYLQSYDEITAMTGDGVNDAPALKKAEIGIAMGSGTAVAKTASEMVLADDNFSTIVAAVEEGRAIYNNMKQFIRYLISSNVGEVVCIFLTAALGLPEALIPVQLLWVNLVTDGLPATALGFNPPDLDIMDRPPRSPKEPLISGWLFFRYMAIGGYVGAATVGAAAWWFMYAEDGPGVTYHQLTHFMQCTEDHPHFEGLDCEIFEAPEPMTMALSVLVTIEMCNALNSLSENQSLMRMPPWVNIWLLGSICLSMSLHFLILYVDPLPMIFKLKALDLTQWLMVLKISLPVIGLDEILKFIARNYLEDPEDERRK
Test: Inhibition of rabbit sarcoplasmic reticulum calcium ATPase by ATP regeneration assay
Give bare numbers, as −log10 of the molar value.

Study these solved cases before continuing.
C/C=C(/C)C(=O)O[C@H]1C(C)=C2[C@H]([C@@H]1OC(=O)CCCCCCC)[C@@](C)(OC(C)=O)C[C@H](OC(=O)CCC)[C@@]1(O)[C@H]2OC(=O)[C@@]1(C)O [THAPSIGARGIN] | 9.70
CCCCCCCC(=O)O[C@H]1[C@H]2C(=C(C)[C@@H]1OC(=O)c1ccc(C)cc1)[C@@H]1OC(=O)[C@@](C)(O)[C@@]1(O)[C@@H](OC(=O)CCC)C[C@]2(C)OC(C)=O | 7.36

Lab note: next molecule to report on.
Can you share its pIC50? I mean this molecule: C/C=C(/C)C(=O)O[C@H]1C(C)=C2[C@H]([C@@H]1OC(=O)CCCCCCC)[C@@](C)(OC(=O)c1ccccc1)C[C@H](OC(=O)CCC)[C@@]1(O)[C@H]2OC(=O)[C@@]1(C)O
7.81
